B1: TPR 5TU (parent)
chain: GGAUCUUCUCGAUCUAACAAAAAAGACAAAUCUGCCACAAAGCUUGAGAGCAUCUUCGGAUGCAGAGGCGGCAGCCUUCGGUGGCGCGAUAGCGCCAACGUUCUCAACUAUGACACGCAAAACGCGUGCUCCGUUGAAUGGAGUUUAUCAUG

Variants of: B1
test protocol: polymerase ribozyme fitness, log enrichment relative to wild type (log ratio); higher = more active; in vitro selection for triplet polymerase activity
This sample holds only a part of the variants without activity.
Quick list: polymerase ribozyme fitness (log ratio) per entry.

variant_code="A16G C35U C116G" experimental_readout="polymerase ribozyme fitness (log ratio)" measured_value=-1.98
variant_code="A52G G84A C116G" experimental_readout="polymerase ribozyme fitness (log ratio)" measured_value=-2.02
variant_code="U45G C69A" experimental_readout="polymerase ribozyme fitness (log ratio)" measured_value=-1.95

Switching to the query record.
Form: variant = C18U C51U C96A G126C C132U ; polymerase ribozyme fitness (log ratio) = -2.04
